# Substrate: O=C(O)C(=O)C[C@H](O)CO
# assay_protocol: purified protein, by the assay type
# Parameters: coupled assay with PpKGSADH, NADH formation at 340 nm, Michaelis-Menten fit, 25 °C, pH 7.5
# condition_notes: pH 7.5; 25.0 °C
assay_readout: kcat/Km (M⁻¹ s⁻¹)
One number for each entry, in M⁻¹ s⁻¹.

[Q] Indicate its recorded kcat/Km; the protein in question is CnL-KdpD (Chis) (Cupriavidus necator H16) (protein, C-terminal His6 tag (kept), pET vector, E. coli BL21(DE3), HisTrap purified; strain given inconsistently (H16 gDNA vs N-1)) MTRTPSPTVYRGVFPVAPTVFDAQGGLDLDGQRRCIDFMIDAGSHGICILANFSEQFVLSDDERNVLMKTVLEHVDGRVPVIVTTTHFSSRLCAERSRAAQDAGAAMVMVMPPYHGATIRVPERSIYEFFATVSDAIDIPIMIQDAPVSGTTLSAPFLARMAREIGNVSYFKIEVPQAAAKLRELIELGGDAIVGPWDGEEAITLMADLEAGATGAMTGAGFPDGIRQILDAWQAGDAELAAQRYQQWLPLINYENRQGWLATSKVLMQAGGVIASDAVRHPLQPMHPATREGLLKIARRLDPLVLRWAR
[A] 1720
